Test: Aqueous stability assessed as half life at pH 7.4 by HPLC
Format: physicochemical
Details: aqueous solution
outcome measure: half-life (h)
Express the result in h but write the number alone.

Quick note, half-life for `O=C(CN1CCOCC1)[C@@H](O)[C@H](O)[C@H](O)CO` landed at 92

Quick note, half-life for `O=C(CN[C@H](Cc1c[nH]c2ccccc12)C(=O)O)[C@@H](O)[C@H](O)[C@H](O)CO` landed at 25
